Test system: RARg homodimer (NR concentration 270 nM)
Assay: PBM binding z-score (relative to random genomic background probes); higher = stronger binding; sequences stand for … in GC…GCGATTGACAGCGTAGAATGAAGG
Some sequences, each annotated with its measured PBM binding z-score.
Write the number on its own, no unit after it.

The examples below pair each entry with its known result.
sequence_record=CCGAGTAGGTTATGGGGCATTAAGGCAACGGTGA test_target="RARg homodimer (NR concentration 270 nM)" numeric_value=0.543
sequence_record=TCTCGGAGGAAACGAAGGTCAGAGCTTTCCAGAG test_target="RARg homodimer (NR concentration 270 nM)" numeric_value=1.53
sequence_record=TCTGCTAGGTCAGCGATGGTCAGCTAATCTGCTA test_target="RARg homodimer (NR concentration 270 nM)" numeric_value=3.88
sequence_record=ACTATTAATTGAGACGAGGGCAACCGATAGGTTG test_target="RARg homodimer (NR concentration 270 nM)" numeric_value=0.967
sequence_record=CCTGACGGGTCACTCCAGGTTATAGCATCGGAGT test_target="RARg homodimer (NR concentration 270 nM)" numeric_value=3.7

Now consider the entry below.
Request - read-out PBM binding z-score | tested on RARg homodimer (NR concentration 270 nM) | sequence ACCGACAGGTGATGAAGGTAACTCAGGCTATCAT
0.23
